Listed here are compounds together with their documented MIC.
- System: Acinetobacter baumannii
- measurement.notes: Antibacterial activity against Acinetobacter baumannii DSM 30007 assessed as growth inhibition after 18 hrs
- Assay type: functional
- particulars: DSM 30007, 18 h
Peptide text beside a SMILES is read from it. * marks the point of attachment. Decanoyl = CCCCCCCCCC(=O)*
# unit: µM | format: bare number

[[record]]
compound = "CCCCCCCCCC(=O)NCCCC[C@H](N)C(=O)N[C@@H](CCCNC(=N)N)C(=O)N[C@@H](Cc1c[nH]c2ccccc12)C(=O)N[C@@H](CCCNC(=N)N)C(=O)N[C@@H](Cc1c[nH]c2ccccc12)C(=O)N[C@@H](CCCNC(=N)N)C(=O)N[C@@H](Cc1c[nH]c2ccccc12)C(N)=O (H-K(Decanoyl)RWRWRW-NH2)"
metric = "MIC"
endpoint_unit = "µM"
numeric_result = 9


**Q:** Supply recorded MIC for N=C(N)NCCC[C@H](NC(=O)[C@H](Cc1c[nH]c2ccccc12)NC(=O)[C@H](CCCNC(=N)N)NC(=O)[C@H](Cc1c[nH]c2ccccc12)NC(=O)[C@@H](N)CCCNC(=N)N)C(=O)N[C@@H](Cc1c[nH]c2ccccc12)C(N)=O (H-RWRWRW-NH2) here.
**A:** 85
